// data source = patent US8791143B2

pest or weed control at 100 g/ha listing for selected compounds.
Test system: larvae of the mustard beetle (Phaedon cochleariae)
Test: Phaedon test (PHAECO spray treatment)
Settings: Phaedon cochleariae, 168 h, read-out: activity in % (beetle larvae killed)
Kindly write the number and append the unit.

Provide pest or weed control at 100 g/ha value for the following compound: Cc1cc(C#N)cc(C(=O)NCc2ccc3c(c2)OCO3)c1NC(=O)c1cc(Cn2nnc(C(F)(F)F)n2)nn1-c1ccccc1Cl [Example 182] 100%

Provide pest or weed control at 100 g/ha value for the following compound: Cc1cc(Cl)cc(C(=O)NCc2cccc(OC(F)(F)F)c2)c1NC(=O)c1cc(Cn2nnc(C(F)(F)F)n2)nn1-c1ncccc1Cl [Example 104] 100%

###

Assay: log P by HPLC on reversed-phase columns (EEC Directive 79/831 Annex V.A8)
Format: physicochemical
Conditions: reversed-phase C18 HPLC column, pH 2.7, HPLC reversed-phase C18, acidic range pH 2.7 (HCOOH); only or first value of the cell; read-out: log P
reported.property: chromatographic logP
The answer should be written as a number, with no unit following it.

Completed entries (count: 5):
Cc1cc(C#N)cc(C(=O)NC2CCN(Cc3ccccc3)C2)c1NC(=O)c1cc(Cn2nnc(C(F)(F)C(F)(F)F)n2)nn1-c1ncccc1Cl (stereo not drawn) : 2.14
Cc1cc(C#N)cc(C(=O)NCc2ccccc2)c1NC(=O)c1cc(Cn2nnnc2CCC(F)(F)F)nn1-c1ncccc1Cl : 2.84
O=C(NCc1cccc(OC(F)(F)F)c1)c1cc2ccccc2c(Cl)c1NC(=O)c1cc(Cn2nnc(C(F)(F)F)n2)nn1-c1ncccc1Cl : 4.38
Cc1cc(Cl)cc(C(=O)NCc2ccc(OC(F)F)cc2)c1NC(=O)c1cc(Cn2nnc(C(F)F)n2)nn1-c1ncccc1Cl : 3.42
O=C(NCc1ccc(OC(F)(F)F)cc1)c1cc2ccccc2c(Cl)c1NC(=O)c1cc(Cn2nnc(C(F)(F)F)n2)nn1-c1ncccc1Cl : 4.36

We now examine a further molecule.
Provide chromatographic logP value for the following molecule: Cc1cc(C#N)cc(C(=O)NCc2ccc(OC(F)F)cc2)c1NC(=O)c1cc(Cn2nnc(C(F)(F)F)n2)nn1-c1c(Cl)cccc1Cl 4.1

###

Assay: log P by HPLC on reversed-phase columns (EEC Directive 79/831 Annex V.A8)
Format: physicochemical
Conditions: pH 2.7, log P
Please note: 1 applies when chromatographic logP is 3 or greater, and 0 applies otherwise.

Some solved cases for reference:
Cc1cc(Cl)cc(C(=O)NC2CCSCC2)c1NC(=O)c1cc(Cn2nnc(C(F)(F)F)n2)nn1-c1ncccc1Cl : 1
Cc1cc(C#N)cc(C(=O)NC2CCN(C)C2=O)c1NC(=O)c1cc(Cn2nnc(C(F)(F)F)n2)nn1-c1ncccc1Cl (stereo not shown) : 0
Cc1cc(Cl)cc(C(=O)NC(C)c2ccc(Cl)cn2)c1NC(=O)c1cc(Cn2nnc(C(F)(F)F)n2)nn1-c1ncccc1Cl (stereo not shown) : 1
Cc1cc(Cl)cc(C(=O)NC2CS(=O)(=O)CC2O)c1NC(=O)c1cc(Cn2nnc(C(F)(F)F)n2)nn1-c1ncccc1Cl (stereo not shown) : 0
Cc1cc(Cl)cc(C(=O)Nc2ccc(Cl)cc2)c1NC(=O)c1cc(Cn2nnc(C(F)(F)F)n2)nn1-c1ncccc1Cl : 1
Cc1cc(Cl)cc(C(=O)NCc2ccccc2)c1NC(=O)c1cc(Cn2nnc(CCC(F)(F)F)n2)nn1-c1ncccc1Cl : 1

Consider the additional molecule presented here.
Hi, just wondering whether Cc1cc(Cl)cc(C(=O)NCc2ccc(F)cn2)c1NC(=O)c1cc(Cn2nnc(C(F)(F)F)n2)nn1-c1ncccc1Cl shows chromatographic logP of 3 or higher. 1

###

Assay: log P by HPLC on reversed-phase columns (EEC Directive 79/831 Annex V.A8)
Type: physicochemical
Conditions: pH 2.7, log P
reported.property: chromatographic logP
The answer should be written as a number, with no unit following it.

Completed entries (count: 3):
Cc1ccc(CNC(=O)c2cc(Cl)cc(C)c2NC(=O)c2cc(Cn3nnc(C(F)(F)F)n3)nn2-c2ncccc2Cl)cc1 : 4.08
O=C(NCc1cccc(Cl)c1)c1cc(Br)cc(Cl)c1NC(=O)c1cc(Cn2nnc(C(F)(F)F)n2)nn1-c1ncccc1Cl : 4.09
Cc1cc(C#N)cc(C(=O)NC2CSC2)c1NC(=O)c1cc(Cn2nnc(C(F)(F)F)n2)nn1-c1ncccc1Cl : 3.06

We now examine a further compound.
Provide chromatographic logP value for the following compound: Cc1cc(Cl)cc(C(=O)NCc2cc(Cl)cc(Cl)c2)c1NC(=O)c1cc(Cn2nnc(C(F)(F)F)n2)nn1-c1ncccc1Cl 4.49

###

chromatographic logP listing for selected compounds.
Test: log P by HPLC on reversed-phase columns (EEC Directive 79/831 Annex V.A8)
Type: physicochemical
Conditions: pH 2.7, log P
The answer should be written as a number, with no unit following it.

Completed entries (count: 5):
Cc1ccc(Cl)c(C(=O)NCc2ccccc2Cl)c1NC(=O)c1cc(Cn2nnc(C(F)(F)F)n2)nn1-c1ncccc1Cl : 3.64
Cc1ccccc1C(C)NC(=O)c1cc(Cl)cc(C)c1NC(=O)c1cc(Cn2nnc(C(F)(F)F)n2)nn1-c1ncccc1Cl (stereo not shown) : 4.2
Cc1cc(Cl)cc(C(=O)NCc2ccc(N)cc2)c1NC(=O)c1cc(Cn2nnc(C(F)(F)F)n2)nn1-c1ncccc1Cl : 2.55
Cc1c(F)ccc(C(=O)NCc2ccc(Cl)cc2)c1NC(=O)c1cc(Cn2nnc(C(F)(F)F)n2)nn1-c1ncccc1Cl : 3.8
Cc1cc(Cl)cc(C(=O)N[C@@H]2CCOC2=O)c1NC(=O)c1cc(Cn2nnc(C(F)(F)F)n2)nn1-c1ncccc1Cl : 2.84

Provide chromatographic logP value for the following compound: Cc1cc(I)cc(C(=O)NCc2ccccc2)c1NC(=O)c1cc(Cn2nnnc2CCC(F)(F)F)nn1-c1ncccc1Cl 3.45

Provide chromatographic logP value for the following compound: Cc1cc(Cl)cc(C(=O)NCc2ccccc2)c1NC(=O)c1cc(Cn2nnnc2CCC(F)(F)F)nn1-c1ncccc1Cl 3.2

###

Experiment: log P by HPLC on reversed-phase columns (EEC Directive 79/831 Annex V.A8)
Format: physicochemical
Settings: reversed-phase C18 HPLC column, pH 2.7, HPLC reversed-phase C18, acidic range pH 2.7 (HCOOH); only or first value of the cell; read-out: log P
chromatographic logP listing for selected molecules.
The answer should be written as a number, with no unit following it.

Cc1cc(Cl)cc(C(=O)NCc2ccccc2C(F)(F)F)c1NC(=O)c1cc(Cn2nnc(C(F)(F)F)n2)nn1-c1ncccc1Cl : 4.21
Cc1cc(C#N)cc(C(=O)NCc2ccccc2OC(F)F)c1NC(=O)c1cc(Cn2nnc(C(F)F)n2)nn1-c1ncccc1Cl : 3.07
Cc1cc(Cl)cc(C(=O)NCc2ccccc2OC(F)F)c1NC(=O)c1cc(Cn2nnc(C(F)F)n2)nn1-c1ncccc1Cl : 3.47

Provide chromatographic logP value for the following molecule: Cc1c(F)ccc(C(=O)NCc2cccc(OC(F)(F)F)c2)c1NC(=O)c1cc(Cn2nnc(C(F)(F)F)n2)nn1-c1ncccc1Cl 4.07

Provide chromatographic logP value for the following molecule: Cc1cc(Cl)cc(C(=O)NC(C)c2ccc(C(C)(C)C)cc2)c1NC(=O)c1cc(Cn2nnc(C(F)(F)F)n2)nn1-c1ncccc1Cl (stereo not shown) 5.06

Provide chromatographic logP value for the following molecule: Cc1cc(C#N)cc(C(=O)NC2CCS(=O)(=O)C2)c1NC(=O)c1cc(Cn2nnc(C(F)(F)F)n2)nn1-c1c(Cl)cccc1Cl (stereo not shown) 2.95

Provide chromatographic logP value for the following molecule: Cc1cc(Cl)cc(C(=O)NCc2ccc(C(F)(F)F)cn2)c1NC(=O)c1cc(Cn2nnc(C(F)(F)F)n2)nn1-c1ncccc1Cl 3.7

Provide chromatographic logP value for the following molecule: Cc1cc(C#N)cc(C(=O)NC2CS(=O)(=O)CC2O)c1NC(=O)c1cc(Cn2nnc(C(F)(F)F)n2)nn1-c1ccccc1Cl (stereo not shown) 2.64

Provide chromatographic logP value for the following molecule: CCCc1cccc(CNC(=O)c2cc(Cl)cc(C)c2NC(=O)c2cc(Cn3nnc(C(F)(F)F)n3)nn2-c2ncccc2Cl)n1 2.94

Provide chromatographic logP value for the following molecule: Cc1cc(Cl)cc(C(=O)NC(C)c2ccc(Cl)cc2F)c1NC(=O)c1cc(Cn2nnc(C(F)(F)F)n2)nn1-c1ncccc1Cl (stereo not shown) 4.42

###

pest or weed control at 100 g/ha listing for selected molecules.
Tested on: larvae of the mustard beetle (Phaedon cochleariae)
Experiment: Phaedon test (PHAECO spray treatment)
Conditions: Phaedon cochleariae, 168 h, read-out: activity in % (beetle larvae killed)
Kindly write the number and append the unit.

Completed entries (count: 6):
COc1ccccc1CNC(=O)c1cc(Cl)cc(C)c1NC(=O)c1cc(Cn2nnc(C(F)(F)F)n2)nn1-c1ncccc1Cl : 100%
Cc1cc(Cl)cc(C(=O)NCc2cc(Cl)ccn2)c1NC(=O)c1cc(Cn2nnc(C(F)(F)F)n2)nn1-c1ncccc1Cl : 100%
Cc1cc(C#N)cc(C(=O)NC2(c3cccc(C(F)(F)F)c3)CC2)c1NC(=O)c1cc(Cn2nnc(C(F)(F)F)n2)nn1-c1ncccc1Cl : 100%
Cc1cc(Cl)cc(C(=O)NCc2ccccc2OC(F)F)c1NC(=O)c1cc(Cn2nnc(C(F)F)n2)nn1-c1ncccc1Cl : 100%
Cc1cc(F)cc(C(=O)NCc2ccc(OC(F)F)cc2)c1NC(=O)c1cc(Cn2nnc(C(F)(F)F)n2)nn1-c1ncccc1Cl : 100%
Cc1cc(Cl)cc(C(=O)NCc2cccc(F)c2)c1NC(=O)c1cc(Cn2nnc(C(F)(F)F)n2)nn1-c1ncccc1Cl : 100%

Provide pest or weed control at 100 g/ha value for the following molecule: Cc1cc(Cl)cc(C(=O)NC(C)c2ccc(Cl)c(Cl)c2)c1NC(=O)c1cc(Cn2nnc(C(F)(F)F)n2)nn1-c1ncccc1Cl (stereo not shown) 100%

Provide pest or weed control at 100 g/ha value for the following molecule: Cc1cc(Cl)cc(C(=O)NCc2ccc(C(F)(F)F)cc2)c1NC(=O)c1cc(Cn2nnc(C(F)(F)F)n2)nn1-c1ncccc1Cl 100%

Provide pest or weed control at 100 g/ha value for the following molecule: COc1cccc(CNC(=O)c2cc(Cl)cc(C)c2NC(=O)c2cc(Cn3nnc(C(F)(F)F)n3)nn2-c2ncccc2Cl)c1 100%

Provide pest or weed control at 100 g/ha value for the following molecule: O=C(NCc1cccc(Cl)c1)c1cc(Cl)cc(F)c1NC(=O)c1cc(Cn2nnc(C(F)(F)F)n2)nn1-c1ncccc1Cl 100%

Provide pest or weed control at 100 g/ha value for the following molecule: Cc1cc(Cl)cc(C(=O)NCc2ccc(N)cc2)c1NC(=O)c1cc(Cn2nnc(C(F)(F)F)n2)nn1-c1ncccc1Cl 100%

Provide pest or weed control at 100 g/ha value for the following molecule: Cc1cc(Cl)cc(C(=O)NCc2ncc(C(F)(F)F)cc2Cl)c1NC(=O)c1cc(Cn2nnc(C(F)(F)F)n2)nn1-c1ncccc1Cl 100%

Provide pest or weed control at 100 g/ha value for the following molecule: Cc1cc(Cl)cc(C(=O)NC(C)c2ccc(Cl)cc2F)c1NC(=O)c1cc(Cn2nnc(C(F)(F)F)n2)nn1-c1ncccc1Cl (stereo not shown) 100%
